# experimental-target: GST-hRIPK1 (8-327) (Homo sapiens (Human), UniProt Q13546)
# Sequence (Q13546 8-327): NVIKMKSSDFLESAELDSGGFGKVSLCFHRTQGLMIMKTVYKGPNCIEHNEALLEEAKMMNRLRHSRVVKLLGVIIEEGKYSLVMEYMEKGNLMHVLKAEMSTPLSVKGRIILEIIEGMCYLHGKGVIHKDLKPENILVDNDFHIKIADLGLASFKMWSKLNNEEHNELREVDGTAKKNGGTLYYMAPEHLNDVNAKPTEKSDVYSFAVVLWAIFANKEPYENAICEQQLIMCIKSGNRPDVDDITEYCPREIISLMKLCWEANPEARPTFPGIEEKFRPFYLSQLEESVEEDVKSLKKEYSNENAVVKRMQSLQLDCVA
# assay: Fluorescent Polarization Binding (FP Binding) assay, RIPK1
# measurement-conditions: GST-hRIPK1 (8-327), mean of at least two independent experiments
pIC50: −log10 of the molar value.
value-type: pIC50

These recorded examples may help you get a feel for the data.
N#Cc1cncc2c1OCCN(C(=O)C1CCN(c3ncc(F)cn3)C[C@@H]1F)C2 (stereo partly shown) [Example 241]; 6.00 to 7.00
COc1nc(N2CCC(C(=O)N3CCOc4c(F)cncc4C3)CC2)ncc1F; 7.00 to 10.00

List pIC50 for every entry below, keeping the order given.
1. N#Cc1cncc2c1OCCN(C(=O)C1CCN(c3ccnc4ccnn34)CC1)C2
2. CC(F)(F)C(C)(CF)C(=O)N1CCOc2c(C#N)cncc2C1 (stereo not shown)
3. N#Cc1cncc2c1OCCN(C(=O)C1CCN(c3ccnc4c(F)cnn34)CC1F)C2 (single isomer, unassigned) [Example 304]
4. CC1(C(=O)N2CCOc3c(C#N)cncc3C2)CCN(c2ncc(Cl)cn2)CC1(F)F (stereo not shown)
5. CC(C)(C(=O)N1CCOc2c(C#N)cncc2C1)C1CCN(c2ncc(F)cn2)C1 (single isomer, unassigned) [Example 281]
6. N#Cc1cncc2c1OCCN(C(=O)C1(F)CCN(c3ncc(F)c(C4CC4)n3)CC1)C2

OUT:
1: 6.00 to 7.00; 2: 6.00 to 7.00; 3: 7.00 to 10.00; 4: 7.00 to 10.00; 5: 7.00 to 10.00; 6: 7.00 to 10.00

Quick one: give me pIC50 for each item below, same order please.
1. CC(C)(C(=O)N1CCOc2c(C#N)cncc2C1)C1CCN(c2ncc(F)cn2)C1 (single isomer, unassigned) [Example 280]
2. CC1(C(=O)N2CCOc3c(C#N)cncc3C2)CCN(c2nccn3ncnc23)CC1(F)F (stereo not shown)

OUT:
1: < 6.00; 2: 7.00 to 10.00

Below is a list of compounds. For each, state its recorded pIC50.
1. CC(C(=O)N1CCOc2c(C#N)cncc2C1)(C(F)F)C1CC1 (single isomer, unassigned) [Example 258]
2. CC1(C(=O)N2CCOc3c(C#N)cncc3C2)CCN(c2ncccn2)CC1(F)F (single isomer, unassigned) [Example 298]
3. O=C(C1CCN(c2ncc(F)cn2)CC1)N1CCCc2ccccc2C1
4. O=C(C1CCN(c2nccc3ncnn23)C[C@@H]1F)N1CCOc2c(F)cncc2C1 (stereo partly shown)
5. CCC(C)(CC#N)C(=O)N1CCOc2c(C#N)cncc2C1 (single isomer, unassigned) [Example 265]
6. N#Cc1cncc2c1OCCN(C(=O)C1CCN(c3ncnn4ccnc34)CC1(F)F)C2 (stereo not shown)

OUT:
1. 7.00 to 10.00
2. < 6.00
3. 6.00 to 7.00
4. 6.00 to 7.00
5. 7.00 to 10.00
6. 6.00 to 7.00

----------
Give IC50 for every item shown.
# experimental-target: GST-hRIPK1 (8-327) (Homo sapiens (Human))
# assay: Fluorescent Polarization Binding (FP Binding) assay, RIPK1
# measurement-conditions: 10 nM GST-hRIPK1 (8-327), 5 nM fluorescent-labeled ligand, RT, 30 min, mean of at least two independent experiments

// known answers, use as guide
CC1CN(C(=O)C(C)(C)C(F)F)Cc2ccccc2O1 (stereo not drawn); > 1000 nM
N#Cc1cncc2c1OCCN(C(=O)C1(CF)CCN(c3ncc(F)cn3)CC1)C2; 100 to 1000 nM
CC(CC(F)(F)F)C(=O)N1CCOc2c(C#N)cncc2C1 (stereo not drawn); 100 to 1000 nM
CC(C)(C(=O)N1CCOc2cccc(C#N)c2C1)C(F)F; > 1000 nM
COC1(C(=O)N2CCOc3c(C#N)cncc3C2)CCN(c2ncc(F)cn2)CC1; 0.1 to 100 nM

Parameter requested: IC50. Apply to each item below.
1. CC(C)(C(=O)N1CCOc2c(C#N)ccc(F)c2C1)C(F)F
2. CC(C)(C(=O)N1CCOc2c(F)cccc2C1)C1CC1
3. N#Cc1cncc2c1OCCN(C(=O)C1(F)CCN(c3nccc4ncnn34)CC1)C2

OUT:
1. 0.1 to 100 nM
2. 0.1 to 100 nM
3. 100 to 1000 nM

IN: I am curious: what IC50 value has been reported for CC(C)(C)C(=O)N1CCOc2c(F)cncc2C1 ?
OUT: 100 to 1000 nM
